Source of measurements: PubChem BioAssay (NCI)

method.summary: NCI Yeast Anticancer Drug Screen. Data for the bub3 strain (AID 167)
condition.parameters: S. cerevisiae bub3 mutant strain, at 50.0 µM, hits give high values
About 79,000 compounds went through this panel and 15% of them were active in at least one assay; those are over-represented in the sample as a whole.
observed.property: growth inhibition (%)
Answer format: numeric, % implied, no suffix.

# annotated cases, reported growth inhibition shown
# compound, result.units, growth inhibition
records = [
    ("CSc1ccc(NC(=S)NN(C)C)cc1", "%", 1.4),
    ("CC(=O)/C(C(=N)C(=O)c1ccccc1)=C(\\C)O", "%", 4.3),
    ("CC(=O)Nc1c([N+](=O)[O-])cc(O)cc1[N+](=O)[O-]", "%", -16.9),
    ("Cc1cccc(C)c1NC(=O)C(=O)CC(=O)c1sc(Nc2c(C)cccc2C)nc1C", "%", 16.6),
    ("CCC(=O)Oc1c2ccsc2c(OC(=O)CC)c2ccsc12", "%", 29.4),
]

Would you kindly share the measured growth inhibition for CC(=O)N=C1N(/C=C2\C(=O)Oc3ccccc3C2=O)C(=O)/C(=C/c2ccc(OC(C)=O)cc2)N1C ?
1.05

* * *

method.summary: NCI Yeast Anticancer Drug Screen. Data for the rad50 strain (AID 155);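 note: 0% = growth of vehicle-only cultures of the same strain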
condition.parameters: S. cerevisiae rad50 strain growth inhibition; at 50.0 µM; hits give high values
Compounds without any hit were thinned out: in the full panel of roughly 79,000, 15% have a hit.
observed.property: growth inhibition (%)
Answer format: numeric, % implied, no suffix.

# molecule, growth inhibition, %
data = [
    ("CCC(/C=C\\C(C)C1CCC2C3CC=C4CC(OS(=O)(=O)c5ccc(C)cc5)CCC4(C)C3CCC12C)C(C)C (stereo not drawn)", -9.9),
    ("COC(=O)C(=O)C1(C)CCc2c(ccc3ccc(OC)cc23)C1=O (stereo not drawn)", -32.8),
    ("O=C(NNc1ccccc1)/C(=C/c1ccc2c(c1)OCO2)NC(=O)c1ccccc1", 15.8),
    ("O=C(O)[Si](c1ccccc1)(c1ccccc1)c1ccccc1", 43.7),
    ("CCC(=O)[C@H]1CC[C@H]2[C@@H]3CCC4=CC(=O)CC[C@]4(C)[C@H]3CC[C@]12C", -7.6),
    ("O=C(Cc1ccccc1)NC(CSCc1ccccc1)C(=O)O (stereo not drawn)", 9.85),
    ("C=CCOCn1cc(C)c(=O)[nH]c1=O", 5.6),
    ("CC(=O)c1sc(Nc2ccc(S(=O)(=O)Nc3nc(C)cc(C)n3)cc2)nc1C", 15.6),
    ("Cc1cc(NC(=O)CCc2ccc(N3C(N)=NC(N)=NC3(C)C)cc2)ccc1S(=O)(=O)O", 38.1),
    ("CCCCCCC1NN(C(C)=O)C(CCCCCC)NN1C(C)=O (stereo not drawn)", 10.5),
]

Would you kindly share the measured growth inhibition for Cc1cnc2nc(C)c(C)nc2n1 ?
12.3

Would you kindly share the measured growth inhibition for O=c1[nH]cnc2ncnn12 ?
20

Would you kindly share the measured growth inhibition for CCc1cc2c(cc1C(=O)CCN1CCCC1)C(C)(C)CCC2(C)C ?
99.5

Would you kindly share the measured growth inhibition for O=C1OC(C(Cl)(Cl)Cl)Nc2ccccc21 (stereo not drawn) ?
13.8

Would you kindly share the measured growth inhibition for O=C(Nc1ccc(N=C=S)cc1Cl)c1cc(Br)cc(Br)c1O ?
94.3

Would you kindly share the measured growth inhibition for CCC(C)NC(=O)C(C)C (stereo not drawn) ?
2.7

Would you kindly share the measured growth inhibition for NC(=S)N/N=C1/CC(=O)N(c2ccccc2)C1c1ccccc1 (stereo not drawn) ?
32.6

Would you kindly share the measured growth inhibition for O=C(Nc1ccc(S(=O)(=O)N2CCCCC2)cc1)Oc1ccccc1C(=O)O ?
26.4

Would you kindly share the measured growth inhibition for O=C1CN(c2cccc(Cl)c2)C(=O)CN1CCN1CC(=O)N(c2cccc(Cl)c2)CC1=O ?
-35.2

Would you kindly share the measured growth inhibition for CC1CSC(C)(C)C(=O)N1 (stereo not drawn) ?
16.2

Would you kindly share the measured growth inhibition for CC1C(O)C(c2ccccc2)(c2ccccc2)C(C)CN1C (stereo not drawn) ?
-5.65

Would you kindly share the measured growth inhibition for ClC1=C(Cl)C2(Cl)C3C(CC4C3C3(Cl)C(Cl)=C(Cl)C4(Cl)C3(Cl)Cl)C1(Cl)C2(Cl)Cl (stereo not drawn) ?
-7.65

Would you kindly share the measured growth inhibition for O=C(O)CCC(CCC(=O)O)(C(=O)O)c1ccccc1 ?
-20.1

* * *

# growth inhibition per record follows
method.summary: NCI Yeast Anticancer Drug Screen. Data for the bub3 strain (AID 167)
condition.parameters: S. cerevisiae bub3 mutant strain, at 50.0 µM, hits give high values
About 79,000 compounds went through this panel and 15% of them were active in at least one assay; those are over-represented in the sample as a whole.
Answer format: numeric, % implied, no suffix.

# compound, result.units, observed
records = [
    ("Cc1cccc(C)c1C1=NCCN1", "%", -16.8),
    ("O=c1[nH]c2c(Cl)cc(Cl)c(Cl)c2c2ccccc12", "%", 21.1),
    ("CCOC(=O)CCN1C(=O)C(=O)N(c2ccc(OC)cc2)C1=S", "%", 5),
    ("COc1ccc(Nc2nc(NS(=O)(=O)c3cc(C)c(Cl)cc3S)n[nH]2)cc1", "%", 16.9),
    ("Cc1cc2nc3c(N)ccc(N)c3nc2cc1N", "%", -29.1),
    ("O=C1NC(=O)c2ccc(S)c3cccc1c23", "%", 3.35),
    ("O=c1c(-c2c(-c3ccccc3)oc3ccc(Cl)cc3c2=O)c(-c2ccccc2)oc2ccc(Cl)cc12", "%", 17.3),
    ("O=C1C=C(Nc2ccc3ccccc3c2[N+](=O)[O-])c2ccccc2C1=O", "%", 23.2),
    ("OC1CCCC1c1ccccc1 (configuration not stated)", "%", -3.7),
    ("CCOC(=O)OC1CCCCC1c1ccccc1 (configuration not stated)", "%", -20.1),
]

Would you kindly share the measured growth inhibition for COc1cc2c(C)cc(O)cc2c2cc(O)c(C)cc12 ?
-9.9

Would you kindly share the measured growth inhibition for CN1NC(=O)CC1c1ccccc1 (configuration not stated) ?
0.25

* * *

method.summary: NCI Yeast Anticancer Drug Screen. Data for the mec2-1 strain (AID 157)
condition.parameters: S. cerevisiae mec2-1 strain, at 50.0 µM, hits give high values
The panel holds about 79,000 compounds, 15% with a hit somewhere; the sample as a whole holds those more often.
# growth inhibition per record follows
Answer format: numeric, % implied, no suffix.

# annotated cases, reported growth inhibition shown
# compound, observed.property, observed
data = [
    ("O=C(O)c1ccc(C(=O)c2ccc(Cl)cc2)cc1", "growth inhibition", 44.5),
    ("O=c1oc2nc(-c3ccccc3)[nH]c(=O)c2c(O)c1Cc1ccccc1", "growth inhibition", 2.75),
    ("Cc1ccnc2c1NC(=O)c1cccnc1N2C1CC1", "growth inhibition", -1.95),
    ("CC1CN=C(Nc2ccc(S(N)(=O)=O)cc2)S1 (stereo unspecified)", "growth inhibition", -18.6),
    ("O=C(c1nc2ccc(Cl)cc2[nH]c1=O)C(O)c1ccccc1 (stereo unspecified)", "growth inhibition", 6.95),
    ("S=C(S)NCCCn1ccnc1", "growth inhibition", 23.8),
    ("COC(=O)/C=C/c1cc(OC)c2c(c1)C(C(=O)OC)C(c1ccc(O)c(OC)c1)O2 (stereo unspecified)", "growth inhibition", 7.6),
    ("CCCC(=O)NS(=O)(=O)c1ccc(C)cc1", "growth inhibition", 7.3),
]

Would you kindly share the measured growth inhibition for Nc1nc2ncc(=O)[nH]c2c(=O)[nH]1 ?
-4.2

Would you kindly share the measured growth inhibition for COC(=O)C=Cc1ccc2nncnc2c1 (mixture of isomers) ?
21.7

Would you kindly share the measured growth inhibition for CC(=O)c1c(C)cc2cccc(OC3OC(CO)C(O)C(O)C3O)c2c1O (stereo unspecified) (tested in a mixture with another compound) ?
8.2

* * *

method.summary: NCI Yeast Anticancer Drug Screen. Data for the sgs1 mgt1 strain (AID 161);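 note: 0% = growth of cultures given vehicle only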
condition.parameters: S. cerevisiae sgs1 mgt1 strain, at 50.0 µM, hits give high values
Compounds without any hit were thinned out: in the full panel of roughly 79,000, 15% have a hit. Where a SMILES comes first, the peptide text is derived from it. The star is where a group is joined. Boc = CC(C)(C)OC(=O)*
# growth inhibition per record follows
Answer format: numeric, % implied, no suffix.

# compound, result.units, observed
records = [
    ("CCCCS(=O)(=O)N(CCC)CCC", "%", 5.25),
]

Would you kindly share the measured growth inhibition for CCOC(=O)C(CC(C)C)NC(=O)C(Cc1ccccc1)NC(=O)CNC(=O)OC(C)(C)C (stereo not drawn) (Boc-Gly-Phe-Leu-OEt; configuration not given here) ?
9.45

* * *

method.summary: NCI Yeast Anticancer Drug Screen. Data for the sgs1 mgt1 strain (AID 161);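 note: 0% = growth of cultures given vehicle only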
condition.parameters: S. cerevisiae sgs1 mgt1 strain, at 50.0 µM, hits give high values
Experimental: Growth inhibition of yeast strains with defined genetic alterations is measured as a screen for potential anti-cancer activity. Selected strains with alterations in DNA damage repair or cell cycle control were exposed to compounds and growth inhibition was measured relative to vehicle treated controls. The strain used in this assay is sgs1 mgt1
Compounds without any hit were thinned out: in the full panel of roughly 79,000, 15% have a hit.
observed.property: growth inhibition (%)
Answer format: numeric, % implied, no suffix.

# annotated cases, reported growth inhibition shown
# compound, growth inhibition / %
records = [
    ("Cc1cc2nc3n(c2cc1C)C(=O)c1cc2ccccc2cc1-3", 3.1),
    ("[S-]c1n[n+](-c2ccccc2)c(-c2ccc(Cl)cc2)s1", 7.75),
]

Would you kindly share the measured growth inhibition for Nc1nc(I)nc2c1ncn2C1OC(COS(N)(=O)=O)C(O)C1O (stereo not drawn) ?
40.9

Would you kindly share the measured growth inhibition for Cn1c(=O)oc2cc(C(O)CN3CCN(Cc4ccccn4)CC3)c(Cl)cc21 (stereo not drawn) ?
-4.5

Would you kindly share the measured growth inhibition for COc1cc2c(cc1OC)[C@H]1C(COC(=O)c3ccccc3)CSC(=Nc3ccccc3)N1CC2 (stereo partly drawn) ?
36

Would you kindly share the measured growth inhibition for CSc1nc2c(cnn2C)c(=O)[nH]1 ?
3.3

Would you kindly share the measured growth inhibition for Cc1ccc(S(=O)(=O)OC2C3OC(C)(C)OC3OC2C2CSC(=S)S2)cc1 (stereo not drawn) ?
10.1
